Conditions: 313.15 K; 101.33 kPa; Liquid; Vibrating tube method
mass density by entry:
Field format: number, assumed kg/m3, no unit text.

CCCCCCn1cc[n+](C)c1.F[P-](F)(F)(F)(F)F [1-hexyl-3-methylimidazolium hexafluorophosphate] | 1280.7
CCCCCCn1cc[n+](C)c1.F[B-](F)(F)F [1-hexyl-3-methylimidazolium tetrafluoroborate] | 1134.7

Return reported mass density; argument: CCCCCCCC[n+]1ccn(C)c1.F[P-](F)(F)(F)(F)F [1-octyl-3-methylimidazolium hexafluorophosphate]
1225

Could you do the same for CCn1cc[n+](C)c1.F[B-](F)(F)F [1-ethyl-3-methylimidazolium tetrafluoroborate] , please?
1269.1
